Below, each entry is listed with its recorded EII50.
system: Escherichia coli; experiment: Inhibitory activity (Enzyme inhibition index) against dihydropteroate synthase from Escherichia coli.

Nc1ccc(S(=O)(=O)c2ccc(O)cc2Cl)cc1	0.26
COc1ccc(S(=O)(=O)c2ccc(N)cc2)c(OC)c1	3.21
Nc1ccc(S(=O)(=O)c2ccc(Cl)cc2Cl)cc1	2.24
Nc1ccc(S(=O)(=O)c2ccc(N)cc2N)cc1	1.59
Cc1ccc(S(=O)(=O)c2ccc(N)cc2)c(C)c1	1.89

Switching to the query record.
Specify reported EII50 for the molecule shown: Nc1ccc(S(=O)(=O)c2ccc(N)cc2)cc1 2.64

Where do the numbers come from? From ChEMBL document CHEMBL1124359.
